Give xmid (log10) for every item shown.
Target: SARS-CoV-2 Spike RBD-His Tag, Sino Biological (SARS-CoV-2)
// keep it numeric: no unit symbol after the value

What value of measured xmid (log10) is listed for vhh_tstrep_sars2_pjl1_L_77 (VHH) VHH: QVQLQESGGGLVQAGGSLRLSCAASGRTFSEYAMGWFRQAPGKEREFVATISWSGGATYHTDSVKGRFTISRDNAKNTVYLQMNSLKPDDTAVYYCAAAGLGTVVSEWDYDYDYWGQGTQVTVSS ?
-1.54

What value of measured xmid (log10) is listed for vhh_tstrep_sars2_pjl1_L_116 (VHH) VHH: QVQLQESGGGLVQAGGSLRLSCAASGRTFSEYAMGWFRQAPGKEREFVASISWSGGATYHTDSVKGRFTISRDNAKNTVYLQMNSLKPDDTAVYYCAAAGLGTVVSEWDYDYDYWGQGTQVTVSS ?
-0.0157

What value of measured xmid (log10) is listed for vhh_tstrep_sars2_pjl1_L_115 (VHH) VHH: QVQLQESGGGLVQAGGSLRLSCAASGRTFSEYAMGWFRQAPGKEREFVATISWSGGATYHTDSVKGRFTISRDNAKNTVYLQMNSLKPDDTAVYYCAAADLGTVVSEWDYDYDYWGQGTQVTVSS ?
-0.277

What value of measured xmid (log10) is listed for vhh_tstrep_sars2_pjl1_L_120 (VHH) VHH: QVQLQESGGGLVQAGGSLRLSCAASGRTFSEYAMGWFRQAPGKEREFVATISWSGGATYHTDSVDGRFTISRDNAKNTVYLQMNSLKPDDTAVYYCAAAGLGTVVSEWDYDYDYWGQGTQVTVSS ?
-0.493
